From: patent US20100159482A1

measuredTarget: T1, proteinase K (UniProt P06873 106-384)
T1 construct: Residue numbers (His69, Ser224 and others) follow PDB 3PRK / Wolf et al; also called PK
T1 sequence (P06873 106-384 limits assumed): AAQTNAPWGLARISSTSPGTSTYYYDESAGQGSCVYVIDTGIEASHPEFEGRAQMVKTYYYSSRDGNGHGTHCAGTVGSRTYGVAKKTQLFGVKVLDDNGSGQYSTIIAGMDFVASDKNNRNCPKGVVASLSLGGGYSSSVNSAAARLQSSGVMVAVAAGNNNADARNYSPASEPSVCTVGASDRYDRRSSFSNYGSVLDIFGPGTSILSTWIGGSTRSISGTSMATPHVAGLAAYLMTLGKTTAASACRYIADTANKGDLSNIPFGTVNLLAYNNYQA
protocolSummary: computed, not measured: CDOCKER docking on PDB 3PRK, MM-PBSA rescoring, average of three poses
measurementType: ΔΔGBind (total binding free energy, calculated) (kcal/mol)
Report only the number, with the unit kcal/mol understood.

Please review the following examples before continuing.
AAPL (HELM PEPTIDE1{[COC(=O)CCC(=O)[*:2]].A.A.P.L.[ClC[*:1]]}$$$$V2.0; SMILES COC(=O)CCC(=O)N[C@@H](C)C(=O)N[C@@H](C)C(=O)N1CCC[C@H]1C(=O)N[C@@H](CC(C)C)C(=O)CCl, also called MeOSuc-AAPL-CH2Cl; methoxysuccinyl-AAPL-chloromethyl ketone) [MeOSuc-AlaAlaProLeu-CH2Cl]	-12.7
AAPF (HELM PEPTIDE1{[COC(=O)CCC(=O)[*:2]].A.A.P.F.[ClC[*:1]]}$$$$V2.0; SMILES COC(=O)CCC(=O)N[C@@H](C)C(=O)N[C@@H](C)C(=O)N1CCC[C@H]1C(=O)N[C@@H](Cc1ccccc1)C(=O)CCl, also called MeOSuc-AAPF-CH2Cl; MSFCK) [MeOSuc-AlaAlaProPhe-CH2Cl]	-2.55

Query binder follows.
Q: Supply recorded ΔΔGBind (total binding free energy, calculated) for AAAPV (HELM PEPTIDE1{[COC(=O)CCC(=O)[*:2]].A.A.A.P.V.[ClC[*:1]]}$$$$V2.0; SMILES COC(=O)CCC(=O)N[C@@H](C)C(=O)N[C@@H](C)C(=O)N[C@@H](C)C(=O)N1CCC[C@H]1C(=O)N[C@H](C(=O)CCl)C(C)C) [MeOSuc-AlaAlaAlaProVal-CH2Cl] here.
Result: 1.32
